Data origin, for the record: PubChem BioAssay

- tested_system: Concanavalin-A (Canavalia ensiformis) (UniProt P02866)
- Sequence (P02866 whole entry, looked up): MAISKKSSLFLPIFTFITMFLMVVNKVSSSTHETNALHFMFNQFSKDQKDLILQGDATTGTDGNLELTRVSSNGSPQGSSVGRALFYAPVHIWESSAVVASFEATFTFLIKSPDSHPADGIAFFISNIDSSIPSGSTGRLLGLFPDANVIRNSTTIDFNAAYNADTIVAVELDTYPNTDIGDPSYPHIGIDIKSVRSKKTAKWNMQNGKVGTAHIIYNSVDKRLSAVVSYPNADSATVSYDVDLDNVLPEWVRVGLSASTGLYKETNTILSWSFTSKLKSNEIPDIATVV
- method_notes: ConA small-molecule binders, primary screen, artefact control for SMM control protein annotation, biochemical, small-molecule microarray, Alexa647 label, 635 nm (AID 1127);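 further: z combines 667 nm emission intensity with signal-to-noise across three replicate slides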
- condition_details: ConA-A647 binding fluorescence, higher = more signal
Please provide measured composite z-score for the entries that follow.
Answers are plain numbers.

- Cc1cc2c(nc1C)CCCCN2CC(C)ON=C1[C@H]2CCn3c(=O)n(-c4ccccc4)c(=O)n3[C@H]2[C@H](O)[C@@H]2O[C@H]12 (stereo partly specified): -0.765
- CC(C)=CCCC(C)=CCON=C1C[C@@H](O)[C@@H](O)[C@@H]2[C@@H]3C(=O)N(c4ccc(F)cc4F)C(=O)[C@@H]3CC[C@H]12: 0.629
- CC(CCN1CCc2nc(-c3ccccc3)c(-c3ccccc3)cc2C1)=NOC[C@@H](O)[C@H]1O[C@@H]2OC(C)(C)O[C@@H]2[C@H]1O: 0.696

Quick one: give me composite z-score for each item below, same order please.
1. C#CCCCON=C1C[C@@H](O)[C@@H](O)[C@@H]2[C@@H]3C(=O)N(c4ccc(F)cc4F)C(=O)[C@@H]3CC[C@@H]12
2. CC(=O)OC[C@H]1O[C@H](CC=NO[C@H](C)c2cn([C@H](CO)Cc3ccccc3)nn2)C=C[C@@H]1OC(C)=O
3. CCOC(=O)[C@H](Cc1ccccc1)NC(=O)CCC1CC(OC(=O)NCc2ccc3c(c2)OCO3)CC2(CCCC(COC(=O)NCCc3ccccc3OC)O2)O1 (stereo partly specified)

Response:
0.505
0.597
1.1

###

- tested_system: Fibroblast growth factor 10 (Homo sapiens)
- method_notes: FGF10 binders on small-molecule microarrays, primary screen, biochemical, small-molecule microarray, 635 nm fluorescence (AID 1102)
- condition_details: FGF10 binding, fluorescence 635 nm, higher = more signal
readout_name: composite z-score

Worked cases, composite z-score given:
• CC[C@@H](c1ccccc1)n1c(=O)n2n(c1=O)[C@H]1[C@H](O)[C@@H]3O[C@@H]3C(=O)[C@H]1CC2 = 0.427
• COc1ccc(O[C@H]2C=C[C@@H](c3ccccc3)O[C@@H]2CON=C(C)CCN2CCc3nc(-c4ccccc4)c(-c4ccccc4)cc3C2)cc1 = -0.156
• COC(=O)CC=C[C@H](C)[C@@H](OCc1cccc(Br)c1)[C@@H](C)[C@H](OC)C1CCCCC1 = -0.0117
• CON=C(C)CCC(=O)OC[C@H]1O[C@H](c2ccccc2)C=C[C@@H]1Oc1ccc(OC)cc1 = 0.142
• CCOC(=O)[C@H](Cc1ccccc1)NC(=O)CCC1CC(OC(=O)NCc2cccc3ccccc23)CC2(CCCC(COC(=O)NCc3cccc(C(F)(F)F)c3)O2)O1 (stereo not given in full) = 0.152

Quick one: give me composite z-score for each item below, same order please.
1. COC(=O)CC=C[C@@H](C)[C@@H](C=NOC[C@@H](O)[C@H]1O[C@@H]2OC(C)(C)O[C@@H]2[C@H]1O)NS(=O)(=O)c1ccc(C)cc1
2. CC(=O)O[C@H]1C2=CO[C@H](C)[C@H]3[C@H]4C5=C([C@H](O)[C@H]6O[C@H]6C5=O)[C@H](OC4C)[C@@]23C(=O)[C@@H]2O[C@@H]21 (stereo not given in full)
3. CC=CC1=C(CO)C(=O)[C@@H]2O[C@@H]2C1=O
4. CCOC(=O)NN=C1C[C@@H](O)[C@@H](O)[C@@H]2[C@@H]3C(=O)N(C(C)(C)C)C(=O)[C@@H]3CC[C@H]12

Response:
[0.504, 0.916, 0.799, 0.338]

Quick one: give me composite z-score for each item below, same order please.
1. CCOC(=O)[C@H](CC(C)C)NC(=O)CCC1CC(OC(=O)NCc2cccc3ccccc23)CC2(CCCC(COC(=O)NCC3CCCCC3)O2)O1 (stereo not given in full)
2. O=C1[C@H]2[C@H]3[C@H](O)[C@H](O)CC(=NOC[C@@H](O)COCc4ccco4)[C@H]3CC[C@H]2C(=O)N1C[C@@H]1CCCO1

Response:
1: 0.924; 2: 0.725

Quick one: give me composite z-score for each item below, same order please.
1. COCCNC(=O)OCC1CCCC2(CC(OC(=O)NCc3ccc4c(c3)OCO4)CC(CCC(=O)N[C@@H](C)C(=O)OC)O2)O1 (stereo not given in full)
2. C[C@H]1CC[C@H]2C(=O)OC(CO)CN2[C@@H]1c1ccc(Br)cc1 (stereo not given in full)
3. O=C1[C@H]2[C@H]3[C@H](O)[C@H](O)CC(=NOCc4ccccc4)[C@H]3CC[C@H]2C(=O)N1Cc1ccc2c(c1)OCO2
4. CC(C)(C)N1C(=O)[C@H]2[C@H]3[C@H](O)C=CC(=O)[C@@H]3CC[C@H]2C1=O

Response:
[0.696, 0.0323, 0.322, 0.429]

###

Please provide measured composite z-score for the entries that follow.
- Test system: Neuregulin-1 EGF-like domain
- method_notes: binders of neuregulin-1 EGF-like domain, primary screen, biochemical, small-molecule microarray, 635 nm fluorescence (AID 1081);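 further: binding of the protein to compounds printed on small-molecule microarray slides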
- condition_details: small-molecule microarray binding, higher = more signal

- CCC(=O)[C@@]1(O)C(=O)N2C(=C3C(=O)OCC[C@@H]31)N(Cc1ccccc1)C(C)=C(C(=O)OC)[C@H]2c1ccccc1: 0.0811

Quick one: give me composite z-score for each item below, same order please.
1. CC=CC1=C(CO)C(=O)[C@@H]2O[C@@H]2C1=O
2. CO[C@H]1COC(=O)[C@@H](Cc2ccccc2)NC(=O)[C@@H](C)COC(=O)CCC[C@@H]1C
3. CCOC(=O)NN=C1C[C@@H](O)[C@@H](O)[C@@H]2[C@@H]3C(=O)N([C@@H](C)c4ccccc4)C(=O)[C@@H]3CC[C@H]12
4. CO[C@H]1COC(=O)CC=C[C@H](C)COC(=O)[C@@H](C)NC(=O)CC=C[C@@H]1C
5. COc1ccc(O[C@H]2C=C[C@@H](c3ccccc3)O[C@@H]2COC(=O)CCC(C)=NOC[C@@H](O)[C@H]2O[C@@H]3OC(C)(C)O[C@@H]3[C@H]2O)cc1

Response:
1. 0.687
2. -0.361
3. 0.0602
4. 0.219
5. 0.724

###

- method_notes: small-molecule microarray binders of probe aLefty2, primary screen, biochemical, biotinylated probe, 635/667 nm fluorescence (AID 1094);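 further: score merges spot fluorescence near 667 nm with spot signal-to-noise ratio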
- condition_details: higher = more signal
readout_name: composite z-score
One number for each entry.

• O=C1[C@H]2[C@H]3[C@H](O)[C@H](O)CC(=NOC[C@@H](O)COCc4ccco4)[C@H]3CC[C@H]2C(=O)N1C[C@@H]1CCCO1 = -0.138

Quick one: give me composite z-score for each item below, same order please.
1. CCc1cc2c(nc1CC)CCN(CCC(C)=NO[C@H](C)c1cn([C@@H]3COC[C@H]3O)nn1)C2
2. COc1ccc(C#C[C@@H]2C=C[C@H](OC(C)=O)[C@@H](COC(C)=O)O2)cc1

Response:
[-0.0936, 0.0164]

Quick one: give me composite z-score for each item below, same order please.
1. CO[C@H]1COC(=O)[C@@H](C)COC(=O)[C@@H](OCc2ccccc2)C=C[C@@H]1C
2. CCCNC(=O)OC[C@H]1O[C@H](CCON=C(C)CCN2CCc3nc(CC)c(CC)cc3C2)C=C[C@@H]1Oc1ccc(OC)cc1
3. CCCNC(=O)OC[C@H]1O[C@H](CCON=Cc2ccc(C(=O)N3[C@H](c4ccc(C)cc4)[C@@H](C)CC[C@H]3C(=O)OC)cc2)C=C[C@@H]1Oc1ccc(OC)cc1
4. Cc1ccc(S(=O)(=O)n2c3ccccc3c3nnc(C(=O)c4ccccc4)nc32)cc1
5. CO[C@H]1COC(=O)[C@@H](Cc2ccccc2)NC(=O)[C@@H](C)COC(=O)CCC[C@@H]1C
6. CO[C@H]1COC(=O)[C@H](C)NC(=O)CC=C[C@@H](C)[C@H](OC)COC(=O)[C@@H](OCc2ccccc2)C=C[C@@H]1C
7. CC(=O)OC[C@H]1OC(ON=CC[C@@H]2C=C[C@H](OC(C)=O)[C@@H](COC(C)=O)O2)[C@H](OC(C)=O)[C@@H](OC(C)=O)[C@@H]1OC(C)=O (stereo not given in full)
8. CCN1C(=O)[C@H]2[C@H]3[C@H](O)[C@H](O)CC(=NNC(=O)OCc4ccc(OC)cc4)[C@@H]3CC[C@H]2C1=O

Response:
[-0.357, -0.0539, -0.263, -0.122, -0.185, -0.166, 0.106, 0.241]

Quick one: give me composite z-score for each item below, same order please.
1. O=C(NN=C1C[C@@H](O)[C@@H](O)[C@@H]2[C@@H]3C(=O)N(C4CCCCC4)C(=O)[C@@H]3CC[C@@H]12)OCc1ccccc1
2. CON=C(C)CCC(=O)OC[C@H]1O[C@H](c2ccccc2)C=C[C@@H]1Oc1ccc(OC)cc1
3. CCC1=NOC(CCC2CC(OC(=O)NCc3cccc4c3OCO4)CC3(CCCC(COC(=O)NCCc4ccccc4OC)O3)O2)C1 (stereo not given)
4. CCOC(=O)[C@H](CC(C)C)NC(=O)CCC1CC(OC(=O)NCCc2ccc(F)cc2)CC2(CCCC(COC(=O)NCCC(C)C)O2)O1 (stereo not given in full)

Response:
1: -0.372; 2: -0.176; 3: -0.099; 4: -0.107
